Just for reference, PubChem BioAssay (NCI) is where these values come from.

# Tested on: M14 melanoma
# experiment.notes: NCI tumour cell line growth inhibition, 48 h
Listed below: TGI values for each entry.

Input line: Dear colleague, I am looking for the recorded TGI of the following compound: COc1ccc(NC(=O)COc2ccccc2)c(C(N)=O)c1
Output line: > 100 µM

Input line: Dear colleague, I am looking for the recorded TGI of the following compound: O=C(NCCN1CCOCC1)Nc1nc2ccc(Sc3nnc4ccc(-c5ccc(F)cc5)nn34)cc2s1
Output line: > 38.8 µM

Input line: Dear colleague, I am looking for the recorded TGI of the following compound: S=C(Nc1ccc(Cl)cc1)c1ccc(CN2CCCCC2)s1
Output line: 26.7 µM

Input line: Dear colleague, I am looking for the recorded TGI of the following compound: Nc1nc(=O)c2[nH]cnc2n1O
Output line: > 100 µM

Input line: Dear colleague, I am looking for the recorded TGI of the following compound: C[C@]12CC/C(=N\O)C[C@@H]1CC[C@@H]1[C@@H]2CC[C@]2(C)/C(=N/O)CC[C@@H]12
Output line: 55.2 µM

Input line: Dear colleague, I am looking for the recorded TGI of the following compound: Nc1nc(N)c2c(CCc3ccc(C(=O)N[C@@H](CCC(=O)O)C(=O)O)cc3)ccnc2n1
Output line: > 100 µM

Input line: Dear colleague, I am looking for the recorded TGI of the following compound: O=C1CSC(c2c[nH]c3ccccc23)N1c1cccc([N+](=O)[O-])c1 (stereo unspecified)
Output line: > 100 µM

Input line: Dear colleague, I am looking for the recorded TGI of the following compound: O=C(O)COc1cc(-c2ccccc2F)nc2cc3c(cc12)OCO3
Output line: > 100 µM

Input line: Dear colleague, I am looking for the recorded TGI of the following compound: COc1cc(/C=C2/CCCc3ccccc3C2=O)cc(OC)c1OC
Output line: > 67.4 µM

Input line: Dear colleague, I am looking for the recorded TGI of the following compound: Clc1ccc(/C=c2\nc(-c3ccccc3)n3c2nc2ccccc23)cc1
Output line: > 100 µM

Input line: Dear colleague, I am looking for the recorded TGI of the following compound: COc1cc(/C=C/C(=O)c2ccc(F)cc2)ccc1OCCCCOc1cc2c(cc1OC)C(=O)N1CCCC1C=N2 (stereo unspecified)
Output line: 4.08 µM
